Cited source for all entries: patent US20220048884A1

# System: NRF2
# method-summary: PathHunter Nuclear Translocation assay (DiscoverX), agonist format
# Assay type: cell-based
# condition-set: 6 hours incubation, 10 concentrations, 30 μM top concentration
value-type: EC50

Can you look up the measured EC50 of CCn1nnc2c(C)c([C@H](c3ccc4c(c3)CN(C(=O)c3ccc(C)c(C)c3)CC4)[C@H](C)C(=O)ON)ccc21 [Example 133] for me?
< 100 nM
